Assay: in vitro
Conditions: human, hela cells, % viability
Kindly apply the following: MET if viability at 28.5 h, 10 µM is less than 90%, NOT MET in every other case.

compound | class
N#Cc1ccc(CN2CCOC3(CCN(C(=O)OCc4ccccc4)CC3)C2)cc1 [CBK161103T] | NOT MET
CC(C)CC(C(=O)Nc1nnc(C(C)C)s1)N1C(=O)c2ccccc2C1=O (centres unmarked) | MET
COc1ccccc1-c1cc(Nc2ccc(N3CCOCC3)cc2)ncn1 | MET

Now, please, on to the next compound.
Consider `COc1ncc(-c2nccnc2OCc2ccccc2)c(OC)n1` . Does its viability at 28.5 h, 10 µM lie strictly below 90%?
NOT MET
